- MEASUREMENT TARGET: T1, SpPot1-DBD (Schizosaccharomyces pombe, UniProt O13988 1-389)
- T1 sequence: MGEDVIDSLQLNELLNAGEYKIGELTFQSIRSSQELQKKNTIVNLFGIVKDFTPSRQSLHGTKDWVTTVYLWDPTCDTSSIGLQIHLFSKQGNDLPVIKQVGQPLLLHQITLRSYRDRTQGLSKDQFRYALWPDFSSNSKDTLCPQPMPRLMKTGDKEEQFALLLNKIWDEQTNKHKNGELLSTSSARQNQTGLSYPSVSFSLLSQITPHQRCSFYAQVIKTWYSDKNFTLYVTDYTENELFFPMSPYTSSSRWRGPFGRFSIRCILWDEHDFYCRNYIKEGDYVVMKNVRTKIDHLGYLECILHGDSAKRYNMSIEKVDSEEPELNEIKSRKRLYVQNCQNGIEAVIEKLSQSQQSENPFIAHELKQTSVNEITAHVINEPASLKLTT
- METHOD: EMSA
RESULT TYPE: Kd (pM)
// note: answer is a bare numeric in pM

Problem: I'd like to know its Kd. The binder in question is GGTTACGGTTACGGT (ssDNA) [15mer]
Solution: 4.2
